System: parental HEK cells
TEST SUMMARY: HEK parental Agonist Counterscreen Assay (non-transfected cells)
Assay type: cell-based
CONDITION DESCRIPTION: HEK Agonist Activity
Kindly return condition met if reported Lipophilic Efficiency (logD) is no lower than 2; return condition not met if it is lower.

>>> df
                                   compound           category
0  CCn1c(=O)n(CC(=O)NCC2COc3ccccc3O2)c(=O)c2ccccc21 (stereo not drawn)      condition met
1   O=C(CSc1ccc2ccccc2c1)NNC(=O)c1ccc(Br)s1  condition not met
2  CCCn1c(CCC(=O)NCCc2ccc(OCC)cc2)nc2cccnc21  condition not met
3  COc1ccccc1C(=O)NNC(=O)C(C)Oc1ccc(Cl)cc1Cl (stereo not drawn)  condition not met

Quick check, Lipophilic Efficiency (logD) >= 2? `COc1cc(OC)cc(-c2nnc(NC(=O)Cc3cccc4ccccc34)o2)c1`
condition not met

Quick check, Lipophilic Efficiency (logD) >= 2? `COc1ccc(CCNC(=O)COc2ccc(Cl)cc2Cl)cc1`
condition not met

---

TESTED ON: GPR139 (Homo sapiens, UniProt Q6DWJ6)
Sequence (Q6DWJ6 whole entry): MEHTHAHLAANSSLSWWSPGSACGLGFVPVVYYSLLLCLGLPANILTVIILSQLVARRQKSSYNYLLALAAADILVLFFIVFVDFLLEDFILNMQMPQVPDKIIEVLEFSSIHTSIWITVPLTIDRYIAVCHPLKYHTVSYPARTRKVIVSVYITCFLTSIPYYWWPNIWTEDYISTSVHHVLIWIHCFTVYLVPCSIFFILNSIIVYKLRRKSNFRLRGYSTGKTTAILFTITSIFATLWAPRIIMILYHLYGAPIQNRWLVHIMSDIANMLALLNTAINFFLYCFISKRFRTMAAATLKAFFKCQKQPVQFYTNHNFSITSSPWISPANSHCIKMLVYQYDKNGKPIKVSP
TEST SUMMARY: GPR139 Agonist titration / agonist counterscreen assay (calcium detection, HEK-GPR139 cells)
Assay type: cell-based
Design: expressed in transfected cells; host or cells: HEK Aequorin cells, Maxcyte transient transfection
CONDITION DESCRIPTION: GPR139 Agonist Activity; ligand efficiency
Listed here are compounds together with their documented Efficiency Ligand.

In [3]: df
Out[3]:
                                   compound  reported_result
0   O=C(CN1CCN(Cc2ccccc2Cl)C1=O)NC1CCCCCCC1             0.37
1           CC1=CN=C(CCc2ccc(F)c3ccccc23)C1             0.57
2  CC(Oc1ccc(Cl)cc1Cl)C(=O)NNC(=O)COc1ccccc1 (stereo not drawn)             0.39
3  CC(C)CN1CCNC(=O)C1CC(=O)NCCCn1ccc2ccccc21 (stereo not drawn)             0.40

Reported Efficiency Ligand for GPR139 (Homo sapiens, UniProt Q6DWJ6), given O=C(CC(C(=O)N1CCc2ccccc21)n1ccnc1)N1CCCCCC1 (stereo not drawn) ?
0.34

Reported Efficiency Ligand for GPR139 (Homo sapiens, UniProt Q6DWJ6), given `Cc1ccccc1CN1CCN(CC(=O)NCCc2ccc(Cl)cc2)C1=O` ?
0.47

Reported Efficiency Ligand for GPR139 (Homo sapiens, UniProt Q6DWJ6), given `O=C(CCCOc1ccc(Cl)cc1Cl)NNC(=O)Cc1ccc2c(c1)OCCO2` ?
0.34

Reported Efficiency Ligand for GPR139 (Homo sapiens, UniProt Q6DWJ6), given `Cc1ccc(CCNC(=O)Cn2cc3c(n2)CCCCC3)cc1` ?
0.47

Reported Efficiency Ligand for GPR139 (Homo sapiens, UniProt Q6DWJ6), given CC1(c2ccc(Cl)cc2)NC(=O)N(CC(=O)NCc2cccs2)C1=O (stereo not drawn) ?
0.43

---

Listed here are compounds together with their documented Lipophilic Efficiency (logD).
Test system: parental HEK cells
TEST SUMMARY: HEK parental Agonist Counterscreen Assay (non-transfected cells)
Type: cell-based
CONDITION DESCRIPTION: HEK Agonist Activity section

Reported Lipophilic Efficiency (logD) for parental HEK cells, given `COc1ccc(CNC(=O)Nc2ccc(-c3cn[nH]c3)cc2)cc1.O=C(O)C(F)(F)F` ?
2.23

Reported Lipophilic Efficiency (logD) for parental HEK cells, given O=C(NCc1csc(-c2cccs2)n1)C1CC(Cc2ccc3c(c2)OCO3)=NO1 (stereo not drawn) ?
1.59

---

Listed here are compounds together with their documented EC50.
Tested on: parental HEK cells
TEST SUMMARY: HEK parental Agonist Counterscreen Assay (non-transfected cells)
Type: cell-based
CONDITION DESCRIPTION: Homo sapiens, HEK293; HEK Agonist Activity section of Table 4 (parental HEK counterscreen)

>>> print(df.to_string())
                                   compound  reported_result
0  O=C(CNc1nnc(CCCOc2ccc(Cl)cc2Cl)o1)Nc1nccs1        > 14.1 µM
1    Cc1cccc(NC(=O)Cn2ncc3c2-c2ccccc2OC3)n1        > 14.1 µM
2         O=C(O)c1ccccc1C(=O)c1cccc2ccccc12        > 18.3 µM
3  O=C(c1ccccc1)C1CCCCC1S(=O)(=O)O (stereo not drawn)        > 14.1 µM
4  COc1ccc(CC(=O)NNC(=O)C(C)Oc2ccc(Cl)cc2Cl)cc1OC (stereo not drawn)        > 14.1 µM

Look up EC50: CCCCCc1cc(C2=CCC=C2)ccc1CC(=O)C1CCc2ccccc2C1 (stereo not drawn)
> 14.1 µM

Look up EC50: `Cc1c(Cl)c(C(F)(F)F)nn1CC(=O)NCc1ccc(Cl)cc1`
> 18 µM

Look up EC50: COc1cc(C(=O)NNC(=O)C(C)Oc2ccc(Cl)cc2Cl)cc(OC)c1OC (stereo not drawn)
> 14.1 µM

Look up EC50: `Cc1ccc(Nc2cn[nH]c(=S)n2)c(C)c1`
> 14.6 µM

---

TESTED ON: GPR139 (Homo sapiens, UniProt Q6DWJ6)
TEST SUMMARY: GPR139 Antagonist titration assay (calcium detection, HEK-GPR139 cells, vs EC80 of S-JNJ-63533054)
Binary call on EC50 with cut-off 4 µM: strictly below means MET, and equality or higher means NOT MET.

In [3]: df
Out[3]:
                                   molecule  category
0  COc1ccccc1CNC(=O)N1c2ccccc2Sc2ccccc21 [SR-01000506165]       MET
1  CCCOC(=O)c1ccc(NC(=O)CSc2ccccc2)cc1 [SR-01000244770]   NOT MET

Report whether reported EC50 is lower than 4 µM (strictly) for Cc1cc(I)ccc1NC(=O)CSc1cccs1 [SR-01000253143]
NOT MET

Report whether reported EC50 is lower than 4 µM (strictly) for CCOC(=O)c1ccc2nc(C)c3c(c2c1)OC(C(C)(Cl)Br)C3 (centres unmarked) [SR-01000220077]
NOT MET

Report whether reported EC50 is lower than 4 µM (strictly) for N#CCC(=O)c1ccccc1Oc1ccc(F)cc1 [SR-01000308363]
NOT MET

Report whether reported EC50 is lower than 4 µM (strictly) for Cc1c(-c2cccc(NC(=O)C3c4ccccc4Oc4ccccc43)c2)nc2ncccn12 [SR-01000907648]
MET

Report whether reported EC50 is lower than 4 µM (strictly) for O=c1c(-c2ccc(Cl)cc2)c(C(F)(F)F)oc2cc(O)ccc12 [SR-01000438114]
MET

Report whether reported EC50 is lower than 4 µM (strictly) for O=C(CCC(=O)OCc1ccc(Br)cc1)Nc1ccc(F)cc1 [SR-01000259336]
MET

Report whether reported EC50 is lower than 4 µM (strictly) for O=C(CS(=O)(=O)c1ccccc1)Nc1ccc(Oc2ccccc2)cc1 [SR-01000263867]
MET

Report whether reported EC50 is lower than 4 µM (strictly) for CC1CCCC(NC(=O)c2cccc(NS(=O)(=O)c3ccc(Br)cc3)c2)C1C (centres unmarked) [SR-01000594343]
NOT MET

---

System: parental HEK cells
TEST SUMMARY: HEK parental Agonist Counterscreen Assay (non-transfected cells)
Assay type: cell-based
CONDITION DESCRIPTION: HEK Agonist Activity
Listed here are molecules together with their documented Lipophilic Efficiency (logD).
Reply with the value as a number alone.

// solved cases for Lipophilic Efficiency (logD) follow
                                   molecule  reported_result
0  COc1ccccc1NC(=O)NNC(=O)CSc1cc(C)c(Br)cc1C             0.94
1  COc1ccc(CCNC(=O)c2cnc(N3CCCC3CO)s2)cc1 (centres unmarked)             2.61
2     Cc1cccc(NC(=O)NCCc2ccc3c(c2)CCCN3C)c1             0.63
3  CCn1c(C)nc2cc(C(=O)NNC(=O)Cc3cccc4ccccc34)ccc21             1.79

Look up Lipophilic Efficiency (logD): CC(CCc1ccccc1)NC(=O)Cn1cc2c(n1)CCCC2 (centres unmarked)
1.35

---

System: parental HEK cells
TEST SUMMARY: HEK parental Agonist Counterscreen Assay (non-transfected cells)
Format: cell-based
CONDITION DESCRIPTION: HEK Agonist Activity
Kindly return 1.0 if reported Lipophilic Efficiency (logP) is no lower than 2; return 0.0 if it is lower.

Use these answered entries as a reference point.
>>> df
                                   compound           tested_on  category
0  CCOc1nn(CC)cc1-c1nnc(SCc2ccc(C(=O)OC)cc2)n1C [SR-01000919746]  parental HEK cells       0.0
1  CCc1nn(CC(=O)NCc2cccc(Br)c2)c(=O)c2cc3occc3n12 [SR-01000099472]  parental HEK cells       1.0
2  O=C(NNC(=O)C1CC1c1ccccc1)Nc1cccc(Cl)c1 (stereo not drawn) [SR-01000202338]  parental HEK cells       0.0
3  COc1cccc(C(=O)NNC(=O)C(C)Oc2ccc(Cl)cc2Cl)c1 (stereo not drawn) [SR-01000356497]  parental HEK cells       0.0
4  Cn1c(CC(=O)NNC(=O)CSc2ccc3ccccc3c2)nc2ccccc21 [SR-01000068729]  parental HEK cells       0.0

Kindly consider the entry below.
Quick check, Lipophilic Efficiency (logP) >= 2? COc1ccccc1OCC(=O)NCCc1ccc2c(c1)CCCN2C [SR-01000911654]
0.0
